The origin of these recorded values is ChEMBL document CHEMBL4616638.

PROCEDURE SUMMARY: Cytotoxicity against human MT4 cells assessed as reduction in cell viability after 5 days by MTT assay
Type: cell-based
RECORDED METRIC: CC50 at 120 h (µM)
The reply should be a number in µM, with the unit left off.

Reference set (5 entries):
MOLECULE	UNITS SYMBOL	CC50 at 120 h
NS(=O)(=O)c1ccc(NC(=O)CSc2nnc(N3C(=O)CSC3c3cccc(Cl)c3)s2)cc1 (stereo not given)	µM	118
CS(=O)(=O)c1ccc(NC(=O)CSc2nnc(N3C(=O)CSC3c3ccccc3)s2)cc1 (stereo not given)	µM	130
CS(=O)(=O)c1ccc(NC(=O)CSc2nnc(N3C(=O)CSC3c3ccc(Cl)cc3)s2)cc1 (stereo not given)	µM	116
NS(=O)(=O)c1ccc(NC(=O)CSc2nnc(N3C(=O)CSC3c3ccccc3)s2)cc1 (stereo not given)	µM	99.2
CS(=O)(=O)c1ccc(NC(=O)CSc2nnc(N3C(=O)CSC3c3cccc(Cl)c3)s2)cc1 (stereo not given)	µM	113

Name the reported CC50 at 120 h value associated with the molecule O=C1CSC(c2ccc(Cl)cc2)N1c1n[nH]c(=S)s1 (stereo not given)
195

----------
PROCEDURE SUMMARY: Selectivity index, ratio of CC50 for human MT4 cells to EC50 for antiviral activity againstHIV1 infected in human MT4 cells
Format: toxicity, cell-based
PARTICULARS: read-out: Ratio CC50/EC50
# reported selectivity ratio; entries follow

Here are 5 molecules together with their reported answers.
MOLECULE	selectivity ratio
NS(=O)(=O)c1ccc(NC(=O)CSc2nnc(N3C(=O)CSC3c3cccc(Cl)c3)s2)cc1 (stereo unspecified)	< 1
CS(=O)(=O)c1ccc(NC(=O)CSc2nnc(N3C(=O)CSC3c3ccc(Cl)cc3)s2)cc1 (stereo unspecified)	< 1
O=C1CSC(c2ccccc2Cl)N1c1nnc(S)s1 (stereo unspecified)	< 1
O=C1CSC(c2cccc(Cl)c2)N1c1nnc(S)s1 (stereo unspecified)	< 1
CS(=O)(=O)c1ccc(NC(=O)CSc2nnc(N3C(=O)CSC3c3ccccc3)s2)cc1 (stereo unspecified)	< 1

Now take the following molecule into account.
Entry O=C1CSC(c2ccccc2)N1c1nnc(S)s1 (stereo unspecified) has what selectivity ratio?
13

----------
TARGET UNDER TEST: UniProtKB Q72547
PROCEDURE SUMMARY: Inhibition of wild type recombinant HIV1 reverse transcriptase p66/p51 using poly(rA)/oligo(dT)16 as template/primer measured after 40 mins by picogreen dye-based spectrofluorometric method
Labelling: IC50 reported below 20 µM becomes criterion met; at or above becomes criterion not met.

Study these solved cases before continuing.
COMPOUND	CLASSIFICATION
NS(=O)(=O)c1ccc(NC(=O)CSc2nnc(N3C(=O)CSC3c3ccccc3Cl)s2)cc1 (configuration not stated)	criterion not met
CS(=O)(=O)c1ccc(NC(=O)CSc2nnc(N3C(=O)CSC3c3ccc(Cl)cc3)s2)cc1 (configuration not stated)	criterion not met
CS(=O)(=O)c1ccc(NC(=O)CSc2nnc(N3C(=O)CSC3c3ccccc3)s2)cc1 (configuration not stated)	criterion not met

Given CS(=O)(=O)c1ccc(NC(=O)CSc2nnc(N3C(=O)CSC3c3ccccc3Cl)s2)cc1 (configuration not stated) , is recorded IC50 strictly lower than 20 µM?
criterion met

Would you kindly verify if IC50 of NS(=O)(=O)c1ccc(NC(=O)CSc2nnc(N3C(=O)CSC3c3ccc(Cl)cc3)s2)cc1 (configuration not stated) is strictly less than 20 µM?
criterion not met

hey, is IC50 for NS(=O)(=O)c1ccc(NC(=O)CSc2nnc(N3C(=O)CSC3c3cccc(Cl)c3)s2)cc1 (configuration not stated) lower than 20 µM or not?
criterion met

Input CS(=O)(=O)c1ccc(NC(=O)CSc2nnc(N3C(=O)CSC3c3cccc(Cl)c3)s2)cc1 (configuration not stated) ; condition: IC50 strictly below 20 µM. Does it hold?
criterion met

IC50 strictly < 20 µM for this compound? O=C1CSC(c2ccccc2)N1c1nnc(S)s1 (configuration not stated)
criterion not met

Consider the compound NS(=O)(=O)c1ccc(NC(=O)CSc2nnc(N3C(=O)CSC3c3ccccc3)s2)cc1 (configuration not stated) . Is its IC50 strictly less than 20 µM?
criterion not met

----------
PROCEDURE SUMMARY: Cytotoxicity against human MT4 cells assessed as reduction in cell viability after 5 days by MTT assay
Assay type: cell-based
Reported CC50 at 120 h values for the following molecules.
Write the answer as a number in µM, unit excluded.

MOLECULE	CC50 at 120 h, µM
O=C1CSC(c2cccc(Cl)c2)N1c1nnc(S)s1 (stereo not drawn)	238

Pending molecule:
Look at this molecule and give its reported CC50 at 120 h. O=C1CSC(c2ccccc2Cl)N1c1nnc(S)s1 (stereo not drawn)
200

----------
Entries and their selectivity ratio
PROCEDURE SUMMARY: Selectivity index, ratio of CC50 for human MT4 cells to EC50 for antiviral activity againstHIV1 infected in human MT4 cells
Format: toxicity, cell-based
PARTICULARS: read-out: Ratio CC50/EC50

Requested read-out: selectivity ratio. Entry: CS(=O)(=O)c1ccc(NC(=O)CSc2nnc(N3C(=O)CSC3c3cccc(Cl)c3)s2)cc1 (stereo not drawn)
< 1

Report selectivity ratio for O=C1CSC(c2ccc(Cl)cc2)N1c1n[nH]c(=S)s1 (stereo not drawn) please.
< 1

selectivity ratio lookup needed for NS(=O)(=O)c1ccc(NC(=O)CSc2nnc(N3C(=O)CSC3c3ccccc3)s2)cc1 (stereo not drawn) , thanks.
< 1

----------
PROCEDURE SUMMARY: Cytotoxicity against human MT4 cells assessed as reduction in cell viability after 5 days by MTT assay
Format: cell-based
Measured CC50 at 120 h by item

// known answers, use as guide
MOLECULE	CC50 at 120 h
NS(=O)(=O)c1ccc(NC(=O)CSc2nnc(N3C(=O)CSC3c3ccc(Cl)cc3)s2)cc1 (centres undefined)	≥ 222 µM
O=C1CSC(c2ccccc2)N1c1nnc(S)s1 (centres undefined)	> 423 µM

CC50 at 120 h for Cc1ccnc2c1NC(=O)c1cccnc1N2C1CC1 ?
> 15 µM

Which CC50 at 120 h value belongs to NS(=O)(=O)c1ccc(NC(=O)CSc2nnc(N3C(=O)CSC3c3ccccc3Cl)s2)cc1 (centres undefined) ?
≥ 18.8 µM

----------
TARGET UNDER TEST: Human immunodeficiency virus type 1 reverse transcriptase (Human immunodeficiency virus 1, UniProt Q72547)
PROCEDURE SUMMARY: Inhibition of wild type recombinant HIV1 reverse transcriptase p66/p51 using poly(rA)/oligo(dT)16 as template/primer measured after 40 mins by picogreen dye-based spectrofluorometric method
RECORDED METRIC: IC50

Answered cases to consult:
COMPOUND	IC50
O=C1CSC(c2cccc(Cl)c2)N1c1nnc(S)s1 (stereo not drawn)	> 100 µM
O=C1CSC(c2ccccc2Cl)N1c1nnc(S)s1 (stereo not drawn)	> 100 µM

Please find the next compound below.
Requested field: IC50. Item: O=C1CSC(c2ccc(Cl)cc2)N1c1n[nH]c(=S)s1 (stereo not drawn)
> 363 µM
